Recorded IC50 by entry
# Tested on: HT-29
# protocol details: Cytotoxicity against human HT-29 cells after 72 hrs by MTT assay
# Type: functional, cell-based
# setup conditions: HT-29, 72 h
property measured: IC50 (µg/mL)

{"molecule": "Sc1ncnc2nc[nH]c12 [MERCAPTOPURINE ANHYDROUS]", "measurement target": "HT-29", "value unit": "µg/mL", "measured": 0.87}
{"molecule": "C/C=C/[C@H](O)CC1CCC(C)C(CC(=O)NCC(O)C(C)C(=O)NCCCC2OC3(CCCC(CCC(C)/C=C(\\C)C(C)O)O3)CCC2C)O1 (stereo partly specified) [BISTRAMIDE D]", "measurement target": "HT-29", "value unit": "µg/mL", "measured": 2.76}
{"molecule": "C/C=C/C(O)C/C=C/CC(C)C(O)CC(=O)NCC(O)C(C)C(=O)NCCCC1OC2(CCCC(CCC(C)/C=C(\\C)C(C)O)O2)CCC1C (stereo unspecified) [BISTRAMIDE K]", "measurement target": "HT-29", "value unit": "µg/mL", "measured": 5.6}
{"molecule": "C/C=C/C(=O)C[C@H]1CC[C@H](C)[C@H](CC(=O)NC[C@H](O)[C@H](C)C(=O)NCCC[C@H]2O[C@@]3(CCC[C@@H](CC[C@H](C)/C=C(\\C)C(C)=O)O3)CC[C@@H]2C)O1 [BISTRAMIDE C]", "measurement target": "HT-29", "value unit": "µg/mL", "measured": 0.5}
{"molecule": "CCCC(=O)CC1CCC(C)C(CC(=O)NCC(O)C(C)C(=O)NCCCC2OC3(CCCC(CCC(C)/C=C(\\C)C(C)O)O3)CCC2C)O1 (stereo unspecified) [BISTRAMIDE B]", "measurement target": "HT-29", "value unit": "µg/mL", "measured": 0.71}
{"molecule": "C/C=C/C(=O)C[C@H]1CC[C@H](C)[C@H](CC(=O)NC[C@H](O)[C@H](C)C(=O)NCCC[C@H]2O[C@@]3(CCC[C@H](CC[C@H](C)/C=C(\\C)[C@H](C)O)O3)CC[C@@H]2C)O1 [BISTRAMIDE A]", "measurement target": "HT-29", "value unit": "µg/mL", "measured": 0.32}
